FYI, the data here is from PubChem BioAssay (NCI).

Test system: NCI-H522 lung
Test: NCI-60 one-dose screen, 48 h (100 = growth as untreated, 0 = no growth, -100 = all killed)
Conditions: 10 µM unless noted
Description: Growth inhibition of the NCI-H522 human Non-Small Cell Lung tumor cell line is measured as a screen for anti-cancer activity. Cells are grown in 96 well plates and exposed to the test compound for 48 hours. Compounds are tested at a single concentration, which is 10^-5 M for most compounds. The reported endpoint is percent growth (GI% or GIPRCNT), where numbers from 0 - 100% represent growth inhibition, and numbers from -100% - 0 represent cell death. […]
Compounds without any hit were thinned out: in the full panel of roughly 83,000, 20% have a hit.
Fulfilled if growth is below 20%. Not fulfilled if not; exact matches included in Not fulfilled.

Please review the entries below; each comes with its answer.
- COMPOUND: "NC(=S)N/N=C(\\c1ccc(Cl)cc1)C1CC1"
  QUALITATIVE_LABEL: "Not fulfilled"
- COMPOUND: "COc1cccc(-c2nc3occn3c2-c2ccnc(NCCCNS(=O)(=O)c3cccc(F)c3)n2)c1"
  QUALITATIVE_LABEL: "Not fulfilled"
- COMPOUND: "CCCCCCCC(=O)Nc1nc2[nH]c(CN3CCN(Cc4cccc(I)c4)CC3)c(CN3CCN(Cc4cccc(I)c4)CC3)c2c(=O)[nH]1"
  QUALITATIVE_LABEL: "Fulfilled"
- COMPOUND: "Cc1c([N+](=O)[O-])cc(C(C)(C)C)cc1[N+](=O)[O-]"
  QUALITATIVE_LABEL: "Not fulfilled"
- COMPOUND: "Cn1c(COC(=O)NCCc2ccccn2)nc2c(N3CCOCC3)nc(Cl)nc21"
  QUALITATIVE_LABEL: "Fulfilled"
- COMPOUND: "CN1CCN(CC#CCNC(=O)[C@]23CCC(C)(C)C[C@H]2C2=CC[C@@H]4[C@@]5(C)Cc6c([nH]c7ccccc67)C(C)(C)[C@@H]5CC[C@@]4(C)[C@]2(C)CC3)CC1"
  QUALITATIVE_LABEL: "Not fulfilled"
- COMPOUND: "COc1ccc2nc(N=Nc3c(O)ccc4ccccc34)sc2c1"
  QUALITATIVE_LABEL: "Not fulfilled"
- COMPOUND: "COc1cc(NCC(O)CN(CC(C)C)C2CCCC2)c2ncccc2c1 (stereo not drawn)"
  QUALITATIVE_LABEL: "Not fulfilled"
- COMPOUND: "COc1cc(CNC(=O)CCCCC[P+](c2ccccc2)(c2ccccc2)c2ccccc2)c(OC)c2c1OCO2"
  QUALITATIVE_LABEL: "Not fulfilled"
- COMPOUND: "Clc1ccc(C2CC(c3cccc(Nc4ccncc4)c3)=NN2c2ccccc2)cc1 (stereo not drawn)"
  QUALITATIVE_LABEL: "Fulfilled"

Does O=CNc1cc(Cl)cc(Cl)c1 have growth strictly under 20%? Not fulfilled

Please answer likewise for CNC(=O)Nc1ccc(-c2nc(N3CCOCC3)nc3c2cnn3C2CCOCC2)cc1 Fulfilled

Please answer likewise for CC(=O)N1N=C(c2cccc(Nc3ccncc3)c2)CC1c1ccc2c(c1)OCO2 (stereo not drawn) Not fulfilled

Please answer likewise for Cc1ccc(C2CC(c3cccc(Nc4ccncc4)c3)=NN2c2ccccc2)cc1 (stereo not drawn) Fulfilled

Please answer likewise for C=C(C)[C@@H]1CC[C@]2(C(=O)NCCCN(CCC#N)CCC#N)CC[C@]3(C)[C@H](CC[C@@H]4[C@@]5(C)CCC(=O)C(C)(C)[C@@H]5CC[C@]43C)[C@@H]12 Not fulfilled

Please answer likewise for c1ccc2c(-c3c4ccsc4cc4[nH]c5ccccc5c34)c[nH]c2c1 Not fulfilled

Please answer likewise for Clc1cc(Cl)cc(N2N=C(c3cccc(Nc4ccncc4)c3)CC2c2ccccc2)c1 (stereo not drawn) Not fulfilled

Please answer likewise for COc1cc2ncnc(Nc3ccc(C(=O)/C=C/c4ccc(C(F)(F)F)cc4F)cc3)c2cc1OC Not fulfilled

Please answer likewise for C=CCn1c(SCC(=O)Nc2ccc(C(=O)/C=C/c3cc(OC)c(OC)c(OC)c3)cc2)nnc1-c1cc(-c2ccc(S(C)(=O)=O)cc2)nc2ccccc12 Not fulfilled

Please answer likewise for CCOC(=O)Oc1c(OC)cc(C(=O)O[C@@H]2C[C@@H]3CN4CCc5c([nH]c6cc(OC)ccc56)[C@H]4C[C@@H]3[C@H](C(=O)OC)[C@H]2OC)cc1OC Not fulfilled

Please answer likewise for COc1ccc(CNCCN2C(=O)c3ccc4c5c(ccc(c35)C2=O)C(=O)N(CCNCc2ccc(OC)cc2)C4=O)cc1 Fulfilled

Please answer likewise for C=C(C)[C@@H]1CC[C@]2(C(=O)O)CC[C@]3(C)[C@H](CC[C@@H]4[C@@]5(C)C[C@@H](CC#Cc6ccc(Br)cc6)C(=O)C(C)(C)[C@@H]5CC[C@]43C)[C@@H]12 Fulfilled

Please answer likewise for CCOC(=O)N1CCc2c(sc3nc4nc[nH]n4c(=O)c23)C1 Not fulfilled

Please answer likewise for O=C1c2ccccc2-c2c1c1c(NCCCO)nc3ccccc3c1n2Cc1ccccc1 Not fulfilled

---

Test system: HOP-62 NSCLC
Assay: NCI-60 one-dose screen, 48 h (100 = growth as untreated, 0 = no growth, -100 = all killed)
Conditions: 10 µM unless noted
Procedure: Growth inhibition of the HOP-62 human Non-Small Cell Lung tumor cell line is measured as a screen for anti-cancer activity. Cells are grown in 96 well plates and exposed to the test compound for 48 hours. Compounds are tested at a single concentration, which is 10^-5 M for most compounds. The reported endpoint is percent growth (GI% or GIPRCNT), where numbers from 0 - 100% represent growth inhibition, and numbers from -100% - 0 represent cell death. […]
This is part of a sample that, as a whole, favours compounds with a hit. Of some 83,000 tested, about 20% had one in any assay.
MEASURED_QUANTITY: growth (%)
Give bare numbers, in %.

The following compounds have reported results that may help.
- MOL_SMILES: "COc1cc(-c2nc3sccn3c2-c2ccnc(NCCNS(=O)(=O)c3ccc(F)cc3)n2)ccc1F"
  growth, %: 32.3
- MOL_SMILES: "O=S(=O)(NCCNc1nccc(-c2c(-c3ccc(F)c(O)c3)nc3occn23)n1)c1ccccc1"
  growth, %: 76.9

Let us move to another entry and its growth.
Report growth for CN1C2CCC1CN(c1cnc(C(=O)Nc3cc(F)cc4cccnc34)cn1)C2 please. 88.6

---

For each entry below, report its growth value.
test system: SK-OV-3 ovarian; assay: NCI-60 one-dose screen, 48 h (100 = growth as untreated, 0 = no growth, -100 = all killed); conditions: 10 µM unless noted
This is part of a sample that, as a whole, favours compounds with a hit. Of some 83,000 tested, about 20% had one in any assay.
Numbers only, in %.

- COMPOUND: "COc1cc(NCC(O)CN(CC(C)C)CC(C)C)c2nc(C)ccc2c1 (stereo not drawn)"
  MEASURED_QUANTITY: "growth"
  QUANTITATIVE_RESULT: 75.2
- COMPOUND: "COc1ccc2c(c1)OC1=C(C(=O)OC1)C2c1cc(OC)c(OC)c(OC)c1 (stereo not drawn)"
  MEASURED_QUANTITY: "growth"
  QUANTITATIVE_RESULT: 13

# map each compound to its growth
1. O=C1c2ccccc2-c2c1c1c(NCCCO)nc3ccccc3c1n2Cc1ccccc1
2. COc1ccc(-c2nn(Cc3ccccc3)c3c2-c2oncc2CC3)cc1OC
3. FCc1nc2nc(Cl)c(Cl)nc2[nH]1

1: 23.8; 2: 137; 3: 97.1

---

test system: OVCAR-3 ovarian; assay: NCI-60 one-dose screen, 48 h; details: 10 µM unless noted
The panel holds about 83,000 compounds, 20% with a hit somewhere; the sample as a whole holds those more often. Activity calls are given as the source filed them. The calls were made as follows: active = growth percent below 10; inactive = the rest.
Result category, one only: label 1 (active), label 0 (inactive)

Please review the entries below; each comes with its answer.
- MOLECULE: "COc1cc(C2CC(c3cccc(Nc4ccncc4)c3)=NN2c2cc(Cl)cc(Cl)c2)cc(OC)c1OC (centres undefined)"
  TEST_TARGET: "OVCAR-3 ovarian"
  QUALITATIVE_LABEL: "label 1"
- MOLECULE: "C[C@]12C[C@H]1CC[C@]1(C)[C@@H]2CC[C@@]23C[C@H](CC[C@H]21)[C@@](O)(CO)C3"
  TEST_TARGET: "OVCAR-3 ovarian"
  QUALITATIVE_LABEL: "label 0"
- MOLECULE: "CC1(c2ccccc2)NC(=O)N(CC(=O)Nc2cccc(I)c2)C1=O (centres undefined)"
  TEST_TARGET: "OVCAR-3 ovarian"
  QUALITATIVE_LABEL: "label 0"

# next molecule below
I'd appreciate the recorded outcome for C=C(C)[C@@H]1CC[C@]2(C(=O)O)CC[C@]3(C)[C@H](CC[C@@H]4[C@@]5(C)C[C@@H](CC#Cc6ccc(Br)cc6)C(=O)C(C)(C)[C@@H]5CC[C@]43C)[C@@H]12 from this test. label 0
